// provenance: ChEMBL document CHEMBL1156112

biological target: Proto-oncogene tyrosine-protein kinase receptor Ret (Homo sapiens, UniProt P07949); assay: Inhibition of human recombinant Ret
Sequence (P07949 whole entry): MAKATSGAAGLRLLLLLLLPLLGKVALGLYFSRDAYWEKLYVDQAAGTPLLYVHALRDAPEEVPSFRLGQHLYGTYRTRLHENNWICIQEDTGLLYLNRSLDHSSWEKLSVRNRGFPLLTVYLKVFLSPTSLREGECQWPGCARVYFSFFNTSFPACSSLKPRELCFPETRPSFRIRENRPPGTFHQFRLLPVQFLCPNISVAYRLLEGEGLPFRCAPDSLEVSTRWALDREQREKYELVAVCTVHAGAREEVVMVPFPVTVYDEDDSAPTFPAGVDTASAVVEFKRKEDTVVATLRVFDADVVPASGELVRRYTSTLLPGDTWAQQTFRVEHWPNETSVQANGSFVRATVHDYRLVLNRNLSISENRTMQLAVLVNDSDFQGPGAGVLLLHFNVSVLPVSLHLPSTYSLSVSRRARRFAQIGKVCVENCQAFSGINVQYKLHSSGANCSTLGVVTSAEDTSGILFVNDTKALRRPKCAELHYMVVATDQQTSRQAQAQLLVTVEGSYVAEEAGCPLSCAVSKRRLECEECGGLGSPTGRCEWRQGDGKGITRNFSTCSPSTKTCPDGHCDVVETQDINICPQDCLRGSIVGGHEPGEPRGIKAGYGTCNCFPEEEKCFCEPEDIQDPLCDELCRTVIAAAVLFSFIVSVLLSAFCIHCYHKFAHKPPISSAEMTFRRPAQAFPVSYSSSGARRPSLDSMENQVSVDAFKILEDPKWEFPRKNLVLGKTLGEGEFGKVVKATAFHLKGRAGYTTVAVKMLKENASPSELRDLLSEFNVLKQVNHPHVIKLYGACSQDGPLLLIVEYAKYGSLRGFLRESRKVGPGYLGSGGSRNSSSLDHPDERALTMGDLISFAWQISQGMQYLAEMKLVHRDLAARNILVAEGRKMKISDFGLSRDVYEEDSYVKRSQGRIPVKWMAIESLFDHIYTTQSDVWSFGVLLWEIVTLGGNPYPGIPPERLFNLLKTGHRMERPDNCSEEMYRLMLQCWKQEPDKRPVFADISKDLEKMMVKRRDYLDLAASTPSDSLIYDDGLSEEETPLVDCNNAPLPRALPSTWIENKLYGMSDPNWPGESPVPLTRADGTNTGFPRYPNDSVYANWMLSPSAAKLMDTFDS

>  <smiles.str>
CN1CCN(c2nc(C3=C(c4c[nH]c5ccccc45)C(=O)NC3=O)c3ccccc3n2)CC1

>  <test.target>
Proto-oncogene tyrosine-protein kinase receptor Ret (Homo sapiens, UniProt P07949)

>  <IC50>
> 10 µM

$$$$

----------
experiment: Inhibition of human recombinant PKA

>  <smiles.str>
CN1CCN(c2nc(C3=C(c4c[nH]c5ccccc45)C(=O)NC3=O)c3ccccc3n2)CC1

>  <u>
µM

>  <IC50>
3.4

$$$$

----------
# Lookup of reported pIC50 keyed by entry
target: Protein kinase C alpha type (Homo sapiens)
pIC50: −log10 of the molar value.
reported.property: pIC50

>  <smiles.str>
CN(C)CCCn1cc(C2=C(c3csc4ccccc34)C(=O)NC2=O)c2ccccc21

>  <test.target>
Protein kinase C alpha type (Homo sapiens)

>  <reported.property>
pIC50

>  <reported.value>
7.14

$$$$
>  <smiles.str>
CN(C)CCCn1cc(C2=C(c3c[nH]c4ccccc34)C(=O)NC2=O)c2ccccc21

>  <test.target>
Protein kinase C alpha type (Homo sapiens)

>  <reported.property>
pIC50

>  <reported.value>
8.64

$$$$
>  <smiles.str>
CN1CCN(c2cccc(C3=C(c4c[nH]c5ccccc45)C(=O)NC3=O)c2)CC1

>  <test.target>
Protein kinase C alpha type (Homo sapiens)

>  <reported.property>
pIC50

>  <reported.value>
8.15

$$$$

----------
target: Phosphatidylinositol 4,5-bisphosphate 3-kinase catalytic subunit delta isoform (Homo sapiens, UniProt O00329); assay: Inhibition of human recombinant PI3Kdelta
Sequence (O00329 whole entry, canonical isoform): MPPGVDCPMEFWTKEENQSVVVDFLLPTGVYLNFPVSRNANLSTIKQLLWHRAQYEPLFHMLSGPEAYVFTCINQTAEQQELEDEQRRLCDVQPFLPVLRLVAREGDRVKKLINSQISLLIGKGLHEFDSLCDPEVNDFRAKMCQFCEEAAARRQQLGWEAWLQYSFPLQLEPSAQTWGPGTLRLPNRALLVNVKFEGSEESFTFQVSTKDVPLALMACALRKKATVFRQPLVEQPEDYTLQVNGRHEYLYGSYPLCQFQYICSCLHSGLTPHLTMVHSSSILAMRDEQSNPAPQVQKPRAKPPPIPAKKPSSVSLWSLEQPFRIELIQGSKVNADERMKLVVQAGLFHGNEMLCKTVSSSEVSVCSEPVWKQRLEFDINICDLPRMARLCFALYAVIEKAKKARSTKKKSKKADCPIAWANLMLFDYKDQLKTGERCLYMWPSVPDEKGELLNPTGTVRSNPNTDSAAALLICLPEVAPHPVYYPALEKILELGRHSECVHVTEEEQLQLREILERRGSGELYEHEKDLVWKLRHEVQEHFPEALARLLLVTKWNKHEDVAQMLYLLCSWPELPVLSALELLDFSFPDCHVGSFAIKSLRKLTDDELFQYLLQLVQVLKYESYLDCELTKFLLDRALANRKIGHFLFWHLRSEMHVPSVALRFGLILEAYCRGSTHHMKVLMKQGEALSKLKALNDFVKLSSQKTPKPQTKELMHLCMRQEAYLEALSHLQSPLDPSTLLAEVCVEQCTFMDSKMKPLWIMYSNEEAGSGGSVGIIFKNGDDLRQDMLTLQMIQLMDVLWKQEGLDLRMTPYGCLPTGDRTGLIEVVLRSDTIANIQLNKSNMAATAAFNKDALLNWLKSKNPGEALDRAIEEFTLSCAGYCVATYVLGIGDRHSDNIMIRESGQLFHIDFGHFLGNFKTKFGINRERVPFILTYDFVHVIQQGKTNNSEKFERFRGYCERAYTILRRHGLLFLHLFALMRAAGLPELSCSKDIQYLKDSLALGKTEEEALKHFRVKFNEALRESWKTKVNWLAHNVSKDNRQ

>  <smiles.str>
CN1CCN(c2nc(C3=C(c4c[nH]c5ccccc45)C(=O)NC3=O)c3ccccc3n2)CC1

>  <IC50>
> 10 µM

$$$$

----------
experiment: AUC (0 to infinity) in Lewis rat at 20 mg/kg, po; assay type: ADME, organism-based; parameters: time infinity, dose 20 mg/kg, route oral; settings: plasma
reported.property: AUC(0-inf) (ng·h/mL)

>  <smiles.str>
CN1CCN(c2cc(C3=C(c4c[nH]c5ccccc45)C(=O)NC3=O)c3ccccc3c2)CC1

>  <reported.value>
1990

$$$$

----------
experiment: Tmax in OFA rat at 20 mg/kg, po; format: ADME, organism-based; set-up: dose 20 mg/kg, route oral; conditions: in vivo

>  <molecule>
CN(C)CCOc1cc(C2=C(c3c[nH]c4ccccc34)C(=O)NC2=O)c2ccccc2c1

>  <Tmax, min>
30

$$$$
>  <molecule>
CN1CCN(c2nc(C3=C(c4c[nH]c5ccccc45)C(=O)NC3=O)c3ccccc3n2)CC1 [SOTRASTAURIN]

>  <Tmax, min>
30

$$$$

----------
# Lookup of reported pIC50 keyed by entry
target: UniProt:Q04759
Sequence (Q04759 whole entry): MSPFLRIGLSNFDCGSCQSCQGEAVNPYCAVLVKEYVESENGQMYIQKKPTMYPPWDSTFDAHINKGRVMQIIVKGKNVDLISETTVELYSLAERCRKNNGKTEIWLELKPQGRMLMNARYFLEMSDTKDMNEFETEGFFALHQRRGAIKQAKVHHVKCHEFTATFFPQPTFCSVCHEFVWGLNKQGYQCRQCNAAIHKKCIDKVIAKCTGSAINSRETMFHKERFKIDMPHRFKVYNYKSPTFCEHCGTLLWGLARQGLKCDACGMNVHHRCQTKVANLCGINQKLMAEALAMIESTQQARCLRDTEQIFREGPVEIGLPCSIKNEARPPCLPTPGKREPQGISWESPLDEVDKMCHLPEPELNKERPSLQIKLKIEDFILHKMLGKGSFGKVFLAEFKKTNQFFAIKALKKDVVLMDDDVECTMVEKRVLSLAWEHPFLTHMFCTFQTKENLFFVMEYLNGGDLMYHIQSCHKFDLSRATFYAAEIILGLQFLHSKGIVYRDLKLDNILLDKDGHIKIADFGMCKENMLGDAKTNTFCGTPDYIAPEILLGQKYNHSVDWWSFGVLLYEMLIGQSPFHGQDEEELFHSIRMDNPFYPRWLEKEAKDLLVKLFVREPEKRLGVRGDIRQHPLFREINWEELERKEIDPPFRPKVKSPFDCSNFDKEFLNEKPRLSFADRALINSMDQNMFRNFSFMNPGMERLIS
pIC50: −log10 of the molar value.
reported.property: pIC50

>  <smiles.str>
CN(C)CCOc1cccc(C2=C(c3c[nH]c4ccccc34)C(=O)NC2=O)c1

>  <reported.property>
pIC50

>  <reported.value>
7.28

$$$$
>  <smiles.str>
CN(C)CCCn1cc(C2=C(c3cccc4ccccc34)C(=O)NC2=O)c2ccccc21

>  <reported.property>
pIC50

>  <reported.value>
6.78

$$$$
>  <smiles.str>
CN(C)CCOc1cc(C2=C(c3c[nH]c4ccccc34)C(=O)NC2=O)c2ccccc2c1

>  <reported.property>
pIC50

>  <reported.value>
8.48

$$$$
>  <smiles.str>
CN1CCN(c2cc(C3=C(c4c[nH]c5ccccc45)C(=O)NC3=O)c3ccccc3c2)CC1

>  <reported.property>
pIC50

>  <reported.value>
8.32

$$$$
>  <smiles.str>
O=C1NC(=O)C(c2c[nH]c3ccccc23)=C1c1nc(N2CCOCC2)nc2ccccc12

>  <reported.property>
pIC50

>  <reported.value>
5.86

$$$$

----------
assay: cells; conditions: Homo sapiens, Splenocyte

>  <smiles.str>
CN1CCN(c2nc(C3=C(c4c[nH]c5ccccc45)C(=O)NC3=O)c3ccccc3n2)CC1

>  <IC50 (nM)>
34

$$$$

----------
molecular target: Hepatocyte growth factor receptor (Homo sapiens, UniProt P08581); assay: Inhibition of human recombinant Met
Sequence (P08581 whole entry): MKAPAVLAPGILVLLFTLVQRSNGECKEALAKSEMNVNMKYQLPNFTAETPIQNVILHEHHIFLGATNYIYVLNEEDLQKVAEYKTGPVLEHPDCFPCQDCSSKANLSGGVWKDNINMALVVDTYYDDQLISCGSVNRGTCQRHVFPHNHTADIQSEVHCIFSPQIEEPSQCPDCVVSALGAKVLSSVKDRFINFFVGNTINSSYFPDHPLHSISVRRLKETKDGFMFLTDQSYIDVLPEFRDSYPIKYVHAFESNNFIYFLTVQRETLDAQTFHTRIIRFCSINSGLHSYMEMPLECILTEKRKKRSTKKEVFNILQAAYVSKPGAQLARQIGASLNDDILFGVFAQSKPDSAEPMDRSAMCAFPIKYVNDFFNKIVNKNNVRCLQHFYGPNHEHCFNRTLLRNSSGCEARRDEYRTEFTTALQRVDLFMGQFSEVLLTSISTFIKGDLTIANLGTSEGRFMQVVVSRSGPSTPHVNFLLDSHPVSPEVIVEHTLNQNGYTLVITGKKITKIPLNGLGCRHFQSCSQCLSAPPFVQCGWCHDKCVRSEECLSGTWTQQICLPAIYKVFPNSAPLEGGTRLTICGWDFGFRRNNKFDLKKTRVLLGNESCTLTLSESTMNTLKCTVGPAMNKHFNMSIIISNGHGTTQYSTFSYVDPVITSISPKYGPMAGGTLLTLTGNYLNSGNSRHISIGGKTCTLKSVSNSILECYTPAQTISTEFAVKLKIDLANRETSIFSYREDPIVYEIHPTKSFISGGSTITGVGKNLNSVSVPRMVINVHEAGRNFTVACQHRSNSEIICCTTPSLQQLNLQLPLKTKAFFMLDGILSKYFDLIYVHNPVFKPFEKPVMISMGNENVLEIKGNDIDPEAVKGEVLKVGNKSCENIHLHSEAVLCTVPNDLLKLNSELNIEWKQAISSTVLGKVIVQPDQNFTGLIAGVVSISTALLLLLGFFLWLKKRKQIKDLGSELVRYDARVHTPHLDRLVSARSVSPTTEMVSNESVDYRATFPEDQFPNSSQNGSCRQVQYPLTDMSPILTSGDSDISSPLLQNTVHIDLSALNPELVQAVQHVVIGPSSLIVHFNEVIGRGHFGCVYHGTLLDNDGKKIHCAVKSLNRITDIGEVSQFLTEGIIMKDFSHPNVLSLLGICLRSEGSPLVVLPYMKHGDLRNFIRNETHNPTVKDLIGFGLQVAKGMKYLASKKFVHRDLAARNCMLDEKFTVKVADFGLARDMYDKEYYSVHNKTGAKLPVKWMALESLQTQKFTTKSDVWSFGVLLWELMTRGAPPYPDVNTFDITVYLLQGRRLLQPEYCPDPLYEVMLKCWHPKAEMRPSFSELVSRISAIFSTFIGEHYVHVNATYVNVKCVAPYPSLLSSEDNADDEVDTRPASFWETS

>  <smiles.str>
CN1CCN(c2nc(C3=C(c4c[nH]c5ccccc45)C(=O)NC3=O)c3ccccc3n2)CC1

>  <test.target>
Hepatocyte growth factor receptor (Homo sapiens, UniProt P08581)

>  <IC50>
> 10 µM

$$$$

----------
Target: Tyrosine-protein kinase receptor UFO (Homo sapiens, UniProt P30530)
Sequence (P30530 whole entry): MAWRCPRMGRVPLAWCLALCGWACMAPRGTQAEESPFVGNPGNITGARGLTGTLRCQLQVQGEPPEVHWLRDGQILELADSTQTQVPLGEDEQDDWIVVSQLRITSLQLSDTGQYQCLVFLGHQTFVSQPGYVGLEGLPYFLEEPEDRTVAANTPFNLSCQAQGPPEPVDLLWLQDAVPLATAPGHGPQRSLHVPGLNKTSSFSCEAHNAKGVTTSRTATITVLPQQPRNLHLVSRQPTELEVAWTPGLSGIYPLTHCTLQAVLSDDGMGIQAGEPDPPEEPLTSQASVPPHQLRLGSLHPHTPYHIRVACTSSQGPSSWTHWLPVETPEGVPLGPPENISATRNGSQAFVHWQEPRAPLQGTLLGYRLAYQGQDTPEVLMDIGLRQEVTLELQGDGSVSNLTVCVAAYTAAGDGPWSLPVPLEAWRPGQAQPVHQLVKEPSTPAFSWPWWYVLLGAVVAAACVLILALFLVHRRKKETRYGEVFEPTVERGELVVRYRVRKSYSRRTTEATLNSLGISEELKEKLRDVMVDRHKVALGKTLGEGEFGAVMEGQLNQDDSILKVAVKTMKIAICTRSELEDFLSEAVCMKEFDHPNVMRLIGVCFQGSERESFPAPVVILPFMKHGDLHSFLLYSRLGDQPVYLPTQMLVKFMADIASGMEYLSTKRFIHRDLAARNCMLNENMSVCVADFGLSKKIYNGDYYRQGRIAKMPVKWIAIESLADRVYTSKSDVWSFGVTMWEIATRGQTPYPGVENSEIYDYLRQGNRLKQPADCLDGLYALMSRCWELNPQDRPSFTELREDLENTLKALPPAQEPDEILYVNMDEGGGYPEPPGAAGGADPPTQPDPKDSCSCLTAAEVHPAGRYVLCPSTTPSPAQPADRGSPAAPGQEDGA
Experiment: Inhibition of human recombinant Axl
reported.property: IC50 (µM)

>  <smiles.str>
CN1CCN(c2nc(C3=C(c4c[nH]c5ccccc45)C(=O)NC3=O)c3ccccc3n2)CC1

>  <reported.property>
IC50

>  <reported.value>
9.1

$$$$
